Tested on: Leishmania major amastigotes
Assay: Leishmania major amastigotes in peritoneal macrophages, percentage of infected macrophages (Giemsa)
Format: cell-based
Conditions: Leishmania major amastigotes after 72 h; means of n = 3, SD ± 15%
READOUT: EC50 (nM)

[[record]]
molecule = "N#CC1=C(N)n2c(nc3ccccc32)NC1c1cccc(F)c1 (stereo not shown)"
readout = "EC50"
measured = 200


---

System: Leishmania major promastigotes
Test: Leishmania major promastigote viability, MTT assay
Format: cell-based
Details: Leishmania major promastigotes after 72 h; means of n = 3, SD ± 15%
pEC50: −log10 of the molar value.
READOUT: pEC50

[[record]]
compound = "N#CC1=C(N)n2c(nc3ccccc32)NC1c1cccc(F)c1 (stereo not shown) [Compound 2a]"
readout = "pEC50"
measured = 6.41

